# System: NCI-H226
# PROTOCOL NOTES: NCI tumour cell line growth inhibition, 48 h
Calls of active or inactive are those of the source. Cut-off read from the data, not from the text of the source: active = GI50 up to about 1.1 µM and inactive = higher.
READOUT LABEL: GI50

GI50 of "Cc1ccc(OC(=O)N2C/C(=C\c3ccccc3)C(=O)/C(=C/c3ccccc3)C2)cc1" , assay on NCI-H226, is 56.5 µM (inactive)

GI50 of "COc1cc(/C=C2/C(=O)N/C(=N\C(C)=O)N2C)ccc1OC(C)=O" , assay on NCI-H226, is > 100 µM (inactive)

GI50 of "CC(C)(Oc1ccc(/C=C/C(=O)c2ccccc2)cc1)C(=O)Nc1c(Cl)cccc1Cl" , assay on NCI-H226, is > 10 µM (inactive)

GI50 of "O=c1c(C(c2ccc(C(c3c(O)oc4cc(O)ccc4c3=O)c3c(O)oc4cc(O)ccc4c3=O)cc2)c2c(O)oc3cc(O)ccc3c2=O)c(O)oc2cc(O)ccc12" , assay on NCI-H226, is > 100 µM (inactive)

* * *

# Test system: IGROV-1
# PROTOCOL NOTES: NCI tumour cell line growth inhibition, 48 h
The source made the active and inactive calls. No stated cut-off is given here; in the data, active = GI50 up to about 1.1 µM and inactive = higher.
Reply using exactly one outcome from t (active), f (inactive)

# input Per the assay record, what outcome was assigned to CC(=O)C1C(=O)C(=O)N(c2cccc([N+](=O)[O-])c2)C1=O (stereo not given) ?
# output f

# input Per the assay record, what outcome was assigned to Cc1cn(C2CC(ON3C(=O)c4ccccc4C3=O)C(CO)O2)c(=O)[nH]c1=O (stereo not given) ?
# output f

# input Per the assay record, what outcome was assigned to COC(=O)C1=C(C(=O)NNc2ccccc2)N(c2cccnc2Cl)C(c2ccccc2)=CC1c1ccccc1 (stereo not given) ?
# output f

# input Per the assay record, what outcome was assigned to CCC(=O)C(C(C)/C=C/CCSc1ccccc1)C(O)CCCCCC(=O)OC (stereo not given) ?
# output f

# input Per the assay record, what outcome was assigned to C=CCOc1cccc(C2(O)c3ccccc3C3=NCCCN32)c1 (stereo not given) ?
# output f

# input Per the assay record, what outcome was assigned to Nc1ncnc2c(C3OC(CO)C(O)C3O)scc12 (stereo not given) ?
# output t

# input Per the assay record, what outcome was assigned to CCCCCCCCCCCCCC(=O)O[C@H]1CC[C@H](NC(=O)[C@H](OC)[C@H](O)[C@@H](O)[C@H](O)/C=C/C(C)C)C(=O)NC1 [BENGAMIDE A] ?
# output t

# input Per the assay record, what outcome was assigned to "CCC1=[N+]([O-])C(C)(C)NC1(C)C" ?
# output f

# input Per the assay record, what outcome was assigned to "COc1ccc(Oc2ccccc2N)cc1" ?
# output f

# input Per the assay record, what outcome was assigned to "Nc1c(-c2ccc(Br)cc2)[n+]([O-])c2ccccc2[n+]1[O-]" ?
# output f

* * *

# System: UACC-62
# PROTOCOL NOTES: NCI tumour cell line growth inhibition, 48 h
Activity calls are given as the source filed them. Rule as the data show it: active = GI50 up to about 1.1 µM and inactive = higher.
Reply using exactly one outcome from active, inactive

# input Per the assay record, what outcome was assigned to C=C1C(=O)OC2C3C(=C)[C@@H](OC(C)=O)CC3C(C)=CC(OC(=O)C(C)(OC(C)=O)C(C)OC(C)=O)[C@@H]12 (stereo partly specified) ?
# output inactive

# input Per the assay record, what outcome was assigned to "CCNC(=O)Nc1ccccn1" ?
# output inactive

# input Per the assay record, what outcome was assigned to "COc1ccc2c(c1)-c1nc(=S)n(CCCN(C)C)c3ccc([N+](=O)[O-])c(c13)N2" ?
# output inactive

# input Per the assay record, what outcome was assigned to CCC1CN2CCc3c([nH]c4ccccc34)[C@@](C(=O)OC)(c3cc4c(cc3OC)N(C)C3C(O)(C(=O)OC)C(C(=O)OC)C5(CC)C=CCN6CCC43C65)C[C@@H](C2)[C@@H]1C(C)(C)C (stereo partly specified) ?
# output active

# input Per the assay record, what outcome was assigned to COC(=O)C1=C(C(=O)NNc2ccccc2)N(c2cccnc2Cl)C(c2ccccc2)=CC1c1ccccc1 (stereo unspecified) ?
# output inactive

# input Per the assay record, what outcome was assigned to "Cc1nc2ccc(S(=O)(=O)Nc3ccccn3)cc2c(=O)n1NS(=O)(=O)c1ccccn1" ?
# output inactive

* * *

# System: OVCAR-3
# PROTOCOL NOTES: NCI tumour cell line growth inhibition, 48 h
Calls of active or inactive are those of the source. Rule as the data show it: active = GI50 up to about 1.1 µM and inactive = higher.
Reply using exactly one outcome from TRUE = active, FALSE = inactive

# input Per the assay record, what outcome was assigned to "CC1=NN(c2nc(N)nc(CBr)n2)C(C)(C)C1" ?
# output FALSE

# input Per the assay record, what outcome was assigned to "CCOC(=O)c1sc2nc(SC)nc(Nc3ccc4c(c3)OCCO4)c2c1N" ?
# output FALSE

# input Per the assay record, what outcome was assigned to "CCOC(=O)c1cc(C2=CCNC2=O)c(-c2cc(C)no2)[nH]1" ?
# output FALSE

# input Per the assay record, what outcome was assigned to "CCCCCCCCCCCCCC(=O)NO" ?
# output FALSE

# input Per the assay record, what outcome was assigned to "CCC(=O)OC[n+]1ccc2c(C)c3[nH]c4ccccc4c3c(C)c2c1" ?
# output FALSE

# input Per the assay record, what outcome was assigned to "S=C(Nc1ccc(/N=N/c2ccccc2)cc1)SCc1ccccc1" ?
# output FALSE

# input Per the assay record, what outcome was assigned to "O=C1c2ccccc2-c2oc(=O)c3ccccc3c21" ?
# output FALSE

# input Per the assay record, what outcome was assigned to CC(C)C(NCc1c2ccccc2nc2ccccc12)C(=O)O (configuration not stated) ?
# output FALSE

# input Per the assay record, what outcome was assigned to "CCCCCCC(=O)CC(=O)C(=O)Nc1ccccc1C" ?
# output FALSE

# input Per the assay record, what outcome was assigned to Nc1ncnc2c(C3OC(CO)C(O)C3O)scc12 (configuration not stated) ?
# output TRUE

# input Per the assay record, what outcome was assigned to "C1=N/CCNCCNCC/N=C/c2ccccc2OCc2cccc(n2)COc2ccccc2/1" ?
# output FALSE

# input Per the assay record, what outcome was assigned to "COc1cc(/C=C\c2ccc(O)cc2)cc(OC)c1OC" ?
# output FALSE

* * *

# System: DU-145
# PROTOCOL NOTES: NCI tumour cell line growth inhibition, 48 h
Calls of active or inactive are those of the source. Rule as the data show it: active = GI50 up to about 1.1 µM and inactive = higher.
Reply using exactly one outcome from class 1 for active, class 0 for inactive

# input Per the assay record, what outcome was assigned to "O=c1cc(C(F)(F)F)c2cc3c(cc2o1)NCCC3" ?
# output class 0

# input Per the assay record, what outcome was assigned to "Cc1n[nH]c(=O)n1C1CCCC1" ?
# output class 0

# input Per the assay record, what outcome was assigned to "CC(=O)N(C(C)=O)n1c(Cc2ccc(Cl)cc2)n[nH]c1=O" ?
# output class 0

# input Per the assay record, what outcome was assigned to "CCOC(=O)c1c(N2CCOCC2)ncn(-c2cccc(Cl)c2)c1=O" ?
# output class 0

# input Per the assay record, what outcome was assigned to "COc1cc(/C=C2/C(=O)N/C(=N\C(C)=O)N2C)ccc1OC(C)=O" ?
# output class 0

# input Per the assay record, what outcome was assigned to "Cn1/c(=N\S(=O)(=O)c2ccccc2)[nH]c2ccccc21" ?
# output class 0

# input Per the assay record, what outcome was assigned to CC(=O)C1C(=O)C(=O)N(c2cccc([N+](=O)[O-])c2)C1=O (stereo not drawn) ?
# output class 0

# input Per the assay record, what outcome was assigned to "C=C1C(=O)O[C@@H]2[C@@H]3O[C@@H](C[C@@H]13)[C@](C)(O)CC/C=C(\C)CCC[C@@H]2C" ?
# output class 0

# input Per the assay record, what outcome was assigned to "O=C1C(Cl)=CC2(C=C1Cl)CCNC1=C2C(=O)c2nc[nH]c2C1=O" ?
# output class 0

# input Per the assay record, what outcome was assigned to "CSc1nc(SC)c2c(CO)c(Br)n(Cc3ccccc3)c2n1" ?
# output class 0

# input Per the assay record, what outcome was assigned to Cc1sc(C)c2c1C(=O)CC2N (stereo not drawn) ?
# output class 0

# input Per the assay record, what outcome was assigned to "NCCCc1nonc1C(=O)O" ?
# output class 0

# input Per the assay record, what outcome was assigned to "CSC(SC)=C(C(=O)O)P(=O)(O)O" ?
# output class 0

# input Per the assay record, what outcome was assigned to CCC(=O)C(C(C)/C=C/CCSc1ccccc1)C(O)CCCCCC(=O)OC (stereo not drawn) ?
# output class 0

# input Per the assay record, what outcome was assigned to "Cc1ccc(S(=O)(=O)Nn2c(C)cc3ccc(S(=O)(=O)Nc4ccccc4[N+](=O)[O-])cc3c2=O)cc1" ?
# output class 0

# input Per the assay record, what outcome was assigned to "OCCCNCc1ccccn1" ?
# output class 0

# input Per the assay record, what outcome was assigned to "CN(C)/C=N/c1c2c(nc3ccccc13)CCCC2" ?
# output class 0

# input Per the assay record, what outcome was assigned to "CC1=NN(c2nc(N)nc(CBr)n2)C(C)(C)C1" ?
# output class 0

# input Per the assay record, what outcome was assigned to "CC(=O)C(=[N+]=[N-])C(=O)N1CCOC1=O" ?
# output class 0

# input Per the assay record, what outcome was assigned to "Cn1c(O)c(C(=O)Nc2ccc([N+](=O)[O-])cc2)c(=O)n(C)c1=S" ?
# output class 0

# input Per the assay record, what outcome was assigned to Clc1ccc(C2=CC(c3ccccc3)N3C(=N[C@H]4CCCC[C@@H]43)N2)cc1 (stereo partly drawn) ?
# output class 0

# input Per the assay record, what outcome was assigned to COC1/C=C/C(C)C(C(C)C(OC)C(C)CCC(=O)C(C)C(CC(=O)O)OC)OC(=O)/C=C/C=C(\C)CC(OC)C(OC)C2=CC(=O)O[C@@H](C(C)C(OC)CC(OC)/C=C/C(C)C(O)C1)[C@H]2O (stereo partly drawn) ?
# output class 1

# input Per the assay record, what outcome was assigned to "CN1Cc2ccccc2/C=C\c2ccccc21" ?
# output class 0

Measured values drawn from ChEMBL document CHEMBL1201862 for this set.
